molecular target: FASN Keto-reductase Domain (hFASN enzyme, full length) (Homo sapiens (Human)); assay: Fatty Acid Synthase Keto-reductase Domain (FASN KR) Inhibition; type: biochemical; settings: NADPH oxidation at 340 nm, ethyl acetoacetate substrate
Sequence (P49327 whole entry, the tested form may be a part): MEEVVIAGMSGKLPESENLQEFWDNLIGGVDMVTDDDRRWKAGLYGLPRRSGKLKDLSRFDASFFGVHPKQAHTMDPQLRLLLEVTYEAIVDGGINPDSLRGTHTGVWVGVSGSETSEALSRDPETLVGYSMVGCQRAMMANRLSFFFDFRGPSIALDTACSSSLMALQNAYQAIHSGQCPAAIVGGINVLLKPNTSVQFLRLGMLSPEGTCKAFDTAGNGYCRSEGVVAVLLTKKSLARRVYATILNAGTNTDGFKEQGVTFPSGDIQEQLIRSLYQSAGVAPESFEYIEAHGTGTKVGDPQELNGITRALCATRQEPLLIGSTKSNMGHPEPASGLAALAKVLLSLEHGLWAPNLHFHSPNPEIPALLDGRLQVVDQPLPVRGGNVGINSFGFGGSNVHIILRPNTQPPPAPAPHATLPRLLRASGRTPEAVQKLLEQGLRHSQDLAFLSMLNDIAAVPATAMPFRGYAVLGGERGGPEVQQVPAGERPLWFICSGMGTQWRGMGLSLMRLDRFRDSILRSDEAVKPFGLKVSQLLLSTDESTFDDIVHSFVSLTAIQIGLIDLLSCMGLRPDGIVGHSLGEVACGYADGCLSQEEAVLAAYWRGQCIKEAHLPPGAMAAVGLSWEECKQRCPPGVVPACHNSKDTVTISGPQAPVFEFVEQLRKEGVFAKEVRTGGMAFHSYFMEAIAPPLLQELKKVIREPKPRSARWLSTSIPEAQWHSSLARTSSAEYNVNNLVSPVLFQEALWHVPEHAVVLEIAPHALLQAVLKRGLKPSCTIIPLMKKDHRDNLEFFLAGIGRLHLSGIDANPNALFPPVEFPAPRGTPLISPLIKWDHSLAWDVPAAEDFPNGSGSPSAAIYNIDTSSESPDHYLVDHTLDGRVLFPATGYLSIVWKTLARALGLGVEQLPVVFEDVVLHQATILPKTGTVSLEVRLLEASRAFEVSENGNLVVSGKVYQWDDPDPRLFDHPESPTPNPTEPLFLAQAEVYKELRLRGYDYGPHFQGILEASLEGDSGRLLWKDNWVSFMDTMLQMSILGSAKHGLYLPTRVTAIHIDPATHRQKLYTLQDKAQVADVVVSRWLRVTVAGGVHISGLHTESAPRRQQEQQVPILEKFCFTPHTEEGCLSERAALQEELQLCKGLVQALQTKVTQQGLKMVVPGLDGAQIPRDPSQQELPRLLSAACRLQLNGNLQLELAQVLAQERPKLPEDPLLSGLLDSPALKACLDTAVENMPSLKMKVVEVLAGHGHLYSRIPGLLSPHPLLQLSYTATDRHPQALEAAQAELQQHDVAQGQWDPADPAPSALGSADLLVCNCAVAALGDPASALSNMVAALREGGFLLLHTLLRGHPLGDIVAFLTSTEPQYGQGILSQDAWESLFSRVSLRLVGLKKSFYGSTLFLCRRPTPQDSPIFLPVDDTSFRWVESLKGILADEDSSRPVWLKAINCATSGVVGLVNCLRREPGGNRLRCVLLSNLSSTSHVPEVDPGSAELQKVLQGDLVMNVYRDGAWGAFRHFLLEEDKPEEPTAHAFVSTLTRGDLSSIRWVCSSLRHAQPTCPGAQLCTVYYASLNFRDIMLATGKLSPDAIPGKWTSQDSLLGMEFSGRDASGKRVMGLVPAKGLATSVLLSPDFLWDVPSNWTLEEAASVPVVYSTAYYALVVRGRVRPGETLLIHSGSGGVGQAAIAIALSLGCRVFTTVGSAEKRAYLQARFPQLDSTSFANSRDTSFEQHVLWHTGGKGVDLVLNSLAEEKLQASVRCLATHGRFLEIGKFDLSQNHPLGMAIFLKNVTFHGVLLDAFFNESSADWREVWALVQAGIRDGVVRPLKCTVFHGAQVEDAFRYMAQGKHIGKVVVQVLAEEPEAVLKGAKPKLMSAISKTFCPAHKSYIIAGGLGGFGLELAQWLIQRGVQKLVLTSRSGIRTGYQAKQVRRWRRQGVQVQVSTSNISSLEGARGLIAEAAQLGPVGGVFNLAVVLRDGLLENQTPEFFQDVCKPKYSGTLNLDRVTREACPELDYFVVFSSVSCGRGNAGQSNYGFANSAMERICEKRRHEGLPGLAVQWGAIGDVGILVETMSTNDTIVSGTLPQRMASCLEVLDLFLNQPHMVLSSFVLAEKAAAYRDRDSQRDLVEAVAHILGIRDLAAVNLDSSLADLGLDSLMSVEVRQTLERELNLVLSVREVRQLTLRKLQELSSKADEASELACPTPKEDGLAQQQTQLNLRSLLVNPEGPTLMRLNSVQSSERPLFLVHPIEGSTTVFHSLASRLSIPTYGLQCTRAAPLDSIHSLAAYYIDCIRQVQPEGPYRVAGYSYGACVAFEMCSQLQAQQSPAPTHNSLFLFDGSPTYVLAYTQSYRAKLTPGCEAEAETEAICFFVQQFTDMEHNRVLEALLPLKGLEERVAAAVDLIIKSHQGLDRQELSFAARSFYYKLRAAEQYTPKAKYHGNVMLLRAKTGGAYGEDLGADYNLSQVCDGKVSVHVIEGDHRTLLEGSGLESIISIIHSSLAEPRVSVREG
assay readout: FASN Keto-reductase Domain pIC50
Respond numerically, and do not add a unit to the figure.

The examples below pair each entry with its known result.
Give the measured FASN Keto-reductase Domain pIC50 of CC1(C)N=C(c2ccc(-c3nc4ccccc4o3)cc2F)N(CC2CN(C(=O)C3CC3)C2)C1=O .
5.77

Give the measured FASN Keto-reductase Domain pIC50 of CC1(C)N=C(c2ccc(-c3c[nH]c4ccccc34)cc2F)N(C[C@@H]2CCN(C(=O)C3CC3)C2)C1=O .
6.73

Give the measured FASN Keto-reductase Domain pIC50 of CC1(C)N=C(c2ccc(-c3ccc4cccnc4c3)cc2)N(C[C@@H]2CCN(C(=O)C3CC3)C2)C1=O .
7.25

Please look at the following compound next.
Give the measured FASN Keto-reductase Domain pIC50 of CC1(C)N=C(c2ccc(-c3ccc4cncnc4c3)cc2F)N(CC2CN(C(=O)C3CC3)C2)C1=O .
5.93

----------
biological target: hFASN enzyme (full length) (Homo sapiens (Human), UniProt P49327); assay: Fatty Acid Synthase (FASN) Inhibition Scintillation Proximity Assay; assay type: biochemical; details: 3H-acetyl-CoA and malonyl-CoA substrates, SPA, mean if tested more than once
Sequence (P49327 whole entry): as the sequence (P49327 whole entry, the tested form may be a part) above
The reader will find reported Human FASN pIC50 values listed item by item below.
Respond numerically, and do not add a unit to the figure.

Give the measured Human FASN pIC50 of Cn1ncc2cc(-c3ccc(C4=NC(C)(C)C(=O)N4C[C@@H]4CCN(C(=O)C5(C)CC5)C4)c(F)c3)ccc21 .
7.18

Give the measured Human FASN pIC50 of CC1(C)N=C(c2ccc(-c3ccc4[nH]ccc4c3)cc2)N(C[C@@H]2CCN(C(=O)C3CC3)C2)C1=O .
7.32

Please look at the following compound next.
Give the measured Human FASN pIC50 of CC1(C)N=C(c2ccc(-c3ccc4cccnc4c3)cc2F)N(CC2CN(C(=O)C3CC3)C2)C1=O .
7.05

----------
molecular target: FASN Keto-reductase Domain (hFASN enzyme, full length) (Homo sapiens (Human)); assay: Fatty Acid Synthase Keto-reductase Domain (FASN KR) Inhibition; type: biochemical; conditions: NADPH oxidation at 340 nm, ethyl acetoacetate substrate; read-out: FASN Keto-reductase Domain pIC50 (converted)
assay readout: IC50 (µM)
Write the value in µM as a bare number.

Give the measured IC50 of CC1(c2ccccc2)N=C(c2ccc(-c3ccc4[nH]ccc4c3)cc2)N(C[C@@H]2CCN(C(=O)C3CC3)C2)C1=O (mixture of isomers) .
0.129

Give the measured IC50 of CC1(c2ccccc2)N=C(c2ccc(-c3ccc4occc4c3)cc2)N(C[C@@H]2CCN(C(=O)C3CC3)C2)C1=O (mixture of isomers) .
0.537

Give the measured IC50 of CC1(C2CC2)N=C(c2ccc(-c3ccc4occc4c3)cc2)N(C[C@@H]2CCN(C(=O)C3CC3)C2)C1=O (mixture of isomers) .
0.603

Please look at the following compound next.
Give the measured IC50 of COCC1(C)N=C(c2ccc(-c3ccc4occc4c3)cc2)N(C[C@@H]2CCN(C(=O)C3CC3)C2)C1=O (mixture of isomers) .
0.389
